Assay readout: Ki (µM)
// note: answer is a bare numeric in µM

API: value(readout=Ki, system=bovine heart LDH (Bos taurus)) for record CC(=O)C(=O)O [pyruvate]
1750
